pIC50 reference
- system-tested: UniProt:Q72874
Scale explanation: pIC50 corresponds to minus log10 of a concentration expressed in moles per litre.

Below, each entry is followed by its recorded pIC50 result.
# compound, pIC50
data = [
    ("C[C@H]1CN(CC(=O)N[C@@H](Cc2ccccc2)[C@H](O)CN(C2CC2)S(=O)(=O)c2ccc(C(F)(F)F)cc2)CCO1", 6.40),
    ("COc1ccc(S(=O)(=O)N(C[C@@H](O)[C@H](Cc2ccccc2)NCCN2CCOCC2)C2CC2)cc1", 6.77),
    ("Nc1ccc(S(=O)(=O)N(C[C@@H](O)[C@H](Cc2ccccc2)NC(=O)N2CCOCC2)C2CC2)cc1", 6.19),
    ("Nc1ccc(S(=O)(=O)N(C[C@@H](O)[C@H](Cc2ccccc2)NCCN2CCOCC2)C2CC2)cc1", 6.03),
]

Query: Query pIC50 on UniProt:Q72874 for COc1ccc(S(=O)(=O)N(C[C@@H](O)[C@H](Cc2ccccc2)NC(=O)N2CCOCC2)C2CC2)cc1
Response: 6.59
